Reference source: patent US6884774B2

- System: Candida albicans FP-633
- Assay type: cell-based
- experimental_context: FP-633, 24 h, pH 7.3
Starred links: 1 amine or outer side, 2 acyl side, 3 side chain; linkers in the order of their positions; H or OH if unused. Positions of bridges follow the written chain, without caps; N, C: chain ends. Non-standard residues stand in square brackets, D forms with d. Residues, ends and D or L forms follow the SMILES beside them. *: point of attachment. X2 = C[C@H]1CC[C@@H](N2CCN(c3ccc(-c4nnc(-c5ccc(C(=O)*)cc5)s4)cc3)CC2)CC1; hTyr(3R-OH,3'-OSO3H) = N[C@H](C(=O)O)[C@H](O)Cc1ccc(O)c(OS(=O)(=O)O)c1; X3 = COCCCCCOC1CCN(c2ccc(-c3nn4cc(-c5ccc(C(=O)*)cc5)nc4s3)cc2)CC1; Orn(3R-OH,Nδ-CH(CH2OH)2) = N[C@H](C(=O)O)[C@H](O)CCNC(CO)CO; X4 = COCCCCOc1ccc(-c2nn3cc(-c4ccc(C(=O)*)cc4)nc3s2)cc1; Orn(4R-OH) = O=C([C@H](C[C@@H](O)CN[*:3])N[*:1])[*:2]; Pro(3S-OH,4S-Me) = C[C@H]1CN[C@H](C(=O)O)[C@H]1O; Hyp = O=C(O)[C@@H]1C[C@@H](O)CN1
Below, each of the molecules is paired with its reported MIC value.

Sample records with MIC:
COCCCCOc1ccc(-c2nn3cc(-c4ccc(C(=O)N[C@H]5C[C@@H](O)CNC(=O)[C@@H]6[C@@H](O)[C@@H](C)CN6C(=O)[C@H]([C@H](O)CCNC(CO)CO)NC(=O)[C@H]([C@H](O)Cc6ccc(O)c(OS(=O)(=O)O)c6)NC(=O)[C@@H]6C[C@@H](O)CN6C(=O)[C@H]([C@@H](C)O)NC5=O)cc4)nc3s2)cc1 [Example 30] (X4-[Orn(4R-OH)]T[Hyp][hTyr(3R-OH,3'-OSO3H)][Orn(3R-OH,Nδ-CH(CH2OH)2)][Pro(3S-OH,4S-Me)]; lactam 1-C)	<0.3 µg/mL
C[C@@H](O)[C@@H]1NC(=O)[C@@H](NC(=O)c2ccc(-c3nnc(-c4ccc(N5CCN([C@H]6CC[C@@H](C)CC6)CC5)cc4)s3)cc2)C[C@@H](O)CNC(=O)[C@@H]2[C@@H](O)[C@@H](C)CN2C(=O)[C@H]([C@H](O)CCNC(CO)CO)NC(=O)[C@H]([C@H](O)Cc2ccc(O)c(OS(=O)(=O)O)c2)NC(=O)[C@@H]2C[C@@H](O)CN2C1=O [Example 9] (X2-[Orn(4R-OH)]T[Hyp][hTyr(3R-OH,3'-OSO3H)][Orn(3R-OH,Nδ-CH(CH2OH)2)][Pro(3S-OH,4S-Me)]; lactam 1-C)	<0.3 µg/mL

# evaluate next
Prompt: Requested read-out: MIC. Entry: COCCCCCOC1CCN(c2ccc(-c3nn4cc(-c5ccc(C(=O)N[C@H]6C[C@@H](O)CNC(=O)[C@@H]7[C@@H](O)[C@@H](C)CN7C(=O)[C@H]([C@H](O)CCNC(CO)CO)NC(=O)[C@H]([C@H](O)Cc7ccc(O)c(OS(=O)(=O)O)c7)NC(=O)[C@@H]7C[C@@H](O)CN7C(=O)[C@H]([C@@H](C)O)NC6=O)cc5)nc4s3)cc2)CC1 [Example 4] (X3-[Orn(4R-OH)]T[Hyp][hTyr(3R-OH,3'-OSO3H)][Orn(3R-OH,Nδ-CH(CH2OH)2)][Pro(3S-OH,4S-Me)]; lactam 1-C)
Response: <0.3 µg/mL
